system: UO-31 renal; assay: NCI-60 one-dose screen, 48 h (100 = growth as untreated, 0 = no growth, -100 = all killed); settings: 10 µM unless noted
About 83,000 compounds went through this panel and 20% of them were active in at least one assay; those are over-represented in the sample as a whole.
A collection of compounds and their measured growth
endpoint name: growth (%)

1) Cc1nn(-c2ccc(Cl)cc2)c(C)c1N=Nc1ccc2oc(=O)ccc2c1: 64.8
2) CC(C)N=C(N/C(N)=N/c1nc2ccccc2s1)NC(C)C: 46.4
3) O=c1c2ccccc2nc(COc2ccccc2)n1/N=C/C=C/c1ccccc1: 89.8
4) O=c1[nH]c(CNc2ccc(NCc3c(-c4ccccc4)no[n+]3[O-])cc2)nc2c1cnn2-c1ccccc1: 55.9
5) CC(=O)Nc1ccc(NC(=O)Nc2cccc(-c3nc(-c4ccc(NC(=O)c5cccs5)cc4Cl)no3)c2)cc1C(F)(F)F: 14.4
